Data provenance: patent US9630977B2

# System: E. cloacae β19
# TEST NAME: In vitro antibacterial activity test (broth microdilution)
# Type: cell-based
# TEST SETTINGS: Enterobacter cloacae, read-out: MIC90
MEASUREMENT KIND: MIC90 (µg/mL)

CC(C)(O/N=C(\C(=O)N[C@@H]1C(=O)N2C(C(=O)[O-])=C(C[n+]3cnc(N)c(NC(=O)c4cc(=O)c(O)cn4O)c3)CSC12)c1nc(N)sc1Cl)C(=O)O (some centres unmarked) [Compound 22] = 32

(A) CC(=O)Nc1c[n+](CC2=C(C(=O)[O-])N3C(=O)[C@@H](NC(=O)/C(=N\OC(C)(C)C(=O)O)c4csc(N)n4)C3SC2)cnc1N (some centres unmarked) [Compound 68]
(B) CC(C)(O/N=C(\C(=O)N[C@@H]1C(=O)N2C(C(=O)[O-])=C(/C=C/C[n+]3cnc(N)c(NC(=O)CCNC(=O)c4cc(=O)c(O)c[nH]4)c3)CSC12)c1csc(N)n1)C(=O)O (some centres unmarked) [Compound 13]
Req: Returns: the label, A or B , whose recorded MIC90 is the lower number. State your choice using its label.
Resp: B
(B: 8 µg/mL, A: 128 µg/mL)

====

# Tested on: K. pneumoniae 2011E
# TEST NAME: In vitro antibacterial activity test (broth microdilution)
# Type: cell-based
# TEST SETTINGS: Klebsiella pneumoniae, 2011E, K. pneumoniae 2011E; read-out: MIC90
MEASUREMENT KIND: MIC90 (µg/mL)

Past entries and their recorded results:
C[C@H](O/N=C(\C(=O)N[C@@H]1C(=O)N2C(C(=O)[O-])=C(C[n+]3cnc(N)c(NCCNC(=O)c4cc(=O)c(O)cn4O)c3)CSC12)c1csc(N)n1)C(=O)O (stereo partly drawn) [Compound 3] = 1
CC(C)(O/N=C(\C(=O)N[C@@H]1C(=O)N2C(C(=O)[O-])=C(C[n+]3cnc(N)c(N)c3)CSC12)c1csc(N)n1)C(=O)O (stereo partly drawn) [Compound 36] = 0.5
CN(CCNc1c[n+](CC2=C(C(=O)[O-])N3C(=O)[C@@H](NC(=O)/C(=N\OC(C)(C)C(=O)O)c4csc(N)n4)C3SC2)cnc1N)C(=O)c1ccc(O)c(O)c1 (stereo partly drawn) [Compound 27] = 2
Cn1cc(O)c(=O)cc1C(=O)NCCNc1c[n+](CC2=C(C(=O)[O-])N3C(=O)[C@@H](NC(=O)/C(=N\OC(C)(C)C(=O)O)c4csc(N)n4)C3SC2)cnc1N (stereo partly drawn) [Compound 2] = 4
CC(C)(O/N=C(\C(=O)N[C@@H]1C(=O)N2C(C(=O)[O-])=C(/C=C/C[n+]3cnc(N)c(NCCCCNC(=O)c4cc(=O)c(O)cn4O)c3)CSC12)c1csc(N)n1)C(=O)O (stereo partly drawn) [Compound 23] = 1
CNc1nc[n+](CC2=C(C(=O)[O-])N3C(=O)[C@@H](NC(=O)/C(=N\OC(C)(C)C(=O)O)c4csc(N)n4)C3SC2)cc1N (stereo partly drawn) [Compound 39] = 1

(a) CC(C)(O/N=C(\C(=O)N[C@@H]1C(=O)N2C(C(=O)[O-])=C(C[n+]3cnc(N)c(NCCNC(=O)c4ccc(O)c(C(=O)O)c4)c3)CSC12)c1csc(N)n1)C(=O)O (stereo partly drawn) [Compound 33]
(b) CC(C)(O/N=C(\C(=O)N[C@@H]1C(=O)N2C(C(=O)[O-])=C(/C=C/C[n+]3cnc(N)c(NCCNC(=O)c4cc(=O)c(O)cn4O)c3)CSC12)c1nsc(N)n1)C(=O)O (stereo partly drawn) [Compound 25]
(c) CC(C)(O/N=C(\C(=O)N[C@@H]1C(=O)N2C(C(=O)[O-])=C(/C=C/C[n+]3cnc(N)c(NC(=O)c4cc(=O)c(O)cn4O)c3)CSC12)c1csc(N)n1)C(=O)O (stereo partly drawn) [Compound 14]
(d) CC(C)(O/N=C(\C(=O)N[C@@H]1C(=O)N2C(C(=O)[O-])=C(C[n+]3cnc(N)c(NC(=O)CCNC(=O)c4ccc(O)c(O)c4)c3)CSC12)c1csc(N)n1)C(=O)O (stereo partly drawn) [Compound 28]
(e) CC(C)(O/N=C(\C(=O)N[C@@H]1C(=O)N2C(C(=O)[O-])=C(C[n+]3cnc(NCCNC(=O)c4cc(=O)c(O)cn4O)c(N)c3)CSC12)c1csc(N)n1)C(=O)O (stereo partly drawn) [Compound 6]
Req: Sequence the entries by MIC90, beginning with the highest number. Reply format: the labels, ordered as requested.
Resp: a, d, e, c, b

(I) CC(C)(O/N=C(\C(=O)N[C@@H]1C(=O)N2C(C(=O)[O-])=C(C[n+]3cnc(N)c(NCCCNC(=O)c4ccc(O)c(O)c4)c3)CSC12)c1csc(N)n1)C(=O)O (stereo partly drawn) [Compound 31]
(II) CC(=O)Nc1c[n+](CC2=C(C(=O)[O-])N3C(=O)[C@@H](NC(=O)/C(=N\OC(C)(C)C(=O)O)c4csc(N)n4)C3SC2)cnc1N (stereo partly drawn) [Compound 68]
(III) C[C@H](O/N=C(\C(=O)N[C@@H]1C(=O)N2C(C(=O)[O-])=C(C[n+]3cnc(N)c(NCCNC(=O)c4ccc(O)c(O)c4)c3)CSC12)c1nc(N)sc1Cl)C(=O)O (stereo partly drawn) [Compound 35]
(IV) C[C@H](O/N=C(\C(=O)N[C@@H]1C(=O)N2C(C(=O)[O-])=C(/C=C/C[n+]3cnc(N)c(NCCNC(=O)c4cc(=O)c(O)cn4O)c3)CSC12)c1csc(N)n1)C(=O)O (stereo partly drawn) [Compound 9]
Req: Sequence the entries by MIC90, beginning with the highest number. Reply format: the labels, ordered as requested.
Resp: I, III, II, IV

====

# Tested on: K. pneumoniae β13
# TEST NAME: In vitro antibacterial activity test (broth microdilution)
# Type: cell-based
# TEST SETTINGS: Klebsiella pneumoniae, K. pneumoniae β13; read-out: MIC90
MEASUREMENT KIND: MIC90 (µg/mL)

(P) CC(C)(O/N=C(\C(=O)N[C@@H]1C(=O)N2C(C(=O)[O-])=C(C[n+]3cnc(N)c(NCCNC(=O)c4cc(=O)c(O)cn4O)c3)CSC12)c1csc(N)n1)C(=O)O (some centres unmarked)
(Q) CC(C)(O/N=C(\C(=O)N[C@@H]1C(=O)N2C(C(=O)[O-])=C(C[n+]3cnc(N)c(NC(=O)CCNC(=O)c4cc(=O)c(O)cn4O)c3)CSC12)c1nsc(N)n1)C(=O)O (some centres unmarked)
(R) C[C@H](O/N=C(\C(=O)N[C@@H]1C(=O)N2C(C(=O)[O-])=C(/C=C/C[n+]3cnc(N)c(NCCNC(=O)c4cc(=O)c(O)cn4O)c3)CSC12)c1nc(N)sc1Cl)C(=O)O (some centres unmarked)
Req: Rank the 3 molecules shown above by MIC90, smallest number first. Reply format: the labels, ordered as requested.
Resp: R, P, Q
(R: 0.125 µg/mL, P: 0.5 µg/mL, Q: 16 µg/mL)

====

# System: E. cloacae β19
# TEST NAME: In vitro antibacterial activity test (broth microdilution)
# Type: cell-based
# TEST SETTINGS: Enterobacter cloacae, read-out: MIC90
MEASUREMENT KIND: MIC90 (µg/mL)

CN(CCNc1c[n+](CC2=C(C(=O)[O-])N3C(=O)[C@@H](NC(=O)/C(=N\OC(C)(C)C(=O)O)c4csc(N)n4)C3SC2)cnc1N)C(=O)c1ccc(O)c(O)c1 (stereo partly shown) = 16

(P) CNc1nc[n+](CC2=C(C(=O)[O-])N3C(=O)[C@@H](NC(=O)/C(=N\OC(C)(C)C(=O)O)c4csc(N)n4)C3SC2)cc1N (stereo partly shown)
(Q) C[C@H](O/N=C(\C(=O)N[C@@H]1C(=O)N2C(C(=O)[O-])=C(C[n+]3cnc(N)c(NC(=O)CCNC(=O)c4cc(=O)c(O)cn4O)c3)CSC12)c1nc(N)sc1Cl)C(=O)O (stereo partly shown)
(R) C[C@H](O/N=C(\C(=O)N[C@@H]1C(=O)N2C(C(=O)[O-])=C(C[n+]3cnc(N)c(NCCNC(=O)c4cc(=O)c(O)c[nH]4)c3)CSC12)c1nc(N)sc1Cl)C(=O)O (stereo partly shown)
Req: Sequence the entries by MIC90, beginning with the highest number. Reply format: the labels, ordered as requested.
Resp: P, Q, R

====

# System: P. aeruginosa 43
# TEST NAME: In vitro antibacterial activity test (broth microdilution)
# Type: cell-based
# TEST SETTINGS: Pseudomonas aeruginosa; P. aeruginosa 43; read-out: MIC90
MEASUREMENT KIND: MIC90 (µg/mL)

Past entries and their recorded results:
CC(C)(O/N=C(\C(=O)N[C@@H]1C(=O)N2C(C(=O)[O-])=C(/C=C/C[n+]3cnc(N)c(NCCNC(=O)c4cc(=O)c(O)cn4O)c3)CSC12)c1nc(N)sc1Cl)C(=O)O (stereo partly shown) = 0.25
CC(C)(O/N=C(\C(=O)N[C@@H]1C(=O)N2C(C(=O)[O-])=C(C[n+]3cnc(N)c(NCCNC(=O)c4cc(=O)c(O)cn4O)c3)CSC12)c1nc(N)sc1Cl)C(=O)O (stereo partly shown) = 0.25
CC(C)(O/N=C(\C(=O)N[C@@H]1C(=O)N2C(C(=O)[O-])=C(/C=C/C[n+]3cnc(N)c(NC(=O)CCNC(=O)c4cc(=O)c(O)c[nH]4)c3)CSC12)c1csc(N)n1)C(=O)O (stereo partly shown) = 4
CC(C)(O/N=C(\C(=O)N[C@@H]1C(=O)N2C(C(=O)[O-])=C(C[n+]3cnc(N)c(NC(=O)c4cc(=O)c(O)cn4O)c3)CSC12)c1nc(N)sc1Cl)C(=O)O (stereo partly shown) = 0.5
CC(C)(O/N=C(\C(=O)N[C@@H]1C(=O)N2C(C(=O)[O-])=C(/C=C/C[n+]3cnc(N)c(NCCNC(=O)c4cc(=O)c(O)cn4O)c3)CSC12)c1csc(N)n1)C(=O)O (stereo partly shown) = 1

(a) CC(C)(O/N=C(\C(=O)N[C@@H]1C(=O)N2C(C(=O)[O-])=C(C[n+]3cnc(N)c(NC(=O)CCNC(=O)c4cc(=O)c(O)cn4O)c3)CSC12)c1nc(N)sc1Cl)C(=O)O (stereo partly shown)
(b) C[C@H](O/N=C(\C(=O)N[C@@H]1C(=O)N2C(C(=O)[O-])=C(C[n+]3cnc(N)c(NCCNC(=O)c4cc(=O)c(O)c[nH]4)c3)CSC12)c1nc(N)sc1Cl)C(=O)O (stereo partly shown)
Req: Which shows the larger MIC90 value: a or b ? State your choice using its label.
Resp: b
(b: 2 µg/mL, a: 0.25 µg/mL)
